Entries and their measured inhibition of aggregation follow.
Experiment: reduction of polyQ htt aggregates in cells – imaging, exon1htt(103Q)mCFP cells, high-content imaging, primary screen (AID 483);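 further: compound exposure lasted 3 days before fixation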
Conditions: exon1htt(103Q)mCFP cell line, aggregate imaging, at 2 µM; stronger effect = higher value
METRIC NAME: inhibition of aggregation (%)

| COMPOUND | NUMBER |
| --- | --- |
| O=C(NC1CCCC1)c1c[nH]c2ccc(F)cc2c1=O | -14.3 |
| CN(c1ccccc1)C(c1ccc(F)cc1)c1nnnn1CC1CCCO1 (centres undefined) | -1.8 |
| O=C(COc1ccc(S(=O)(=O)N2CCCC2)cc1Cl)NC1CC1 | -1.8 |
| CC(C)(C)NC[C@H](O)COc1nsnc1N1CCOCC1 | -13.8 |
| Cc1cc(NC(=O)c2ccccc2Oc2ccccc2)no1 | 23.9 |
| CCOc1cc(S(=O)(=O)NCc2ccccn2)c(C)cc1C | -0.5 |
| O=C(Nc1nccs1)c1ccc(Cl)c(S(=O)(=O)N2CCCCC2)c1 | 30.8 |
| O=C(Nc1ccc(Cl)cc1)C1CC=CCC1C(=O)OCC(F)(F)C(F)F (centres undefined) | 31.1 |
| Cc1ccc(-n2c(=O)[nH]c3c(C(N)=O)nc(CC(C)C)nc32)cc1 | 9.5 |

###

Assay: TLR3 IRF3 reporter activation blockers – cell-based, poly I:C stimulus, luciferase, 10K MLSCN set, primary screen (AID 602277)
Settings: HEK293-TLR3 RL24 IRF3 luciferase reporter, at 10 µM, stronger effect = higher value

| COMPOUND | inhibition, % |
| --- | --- |
| COC(=O)c1sc(NC(=O)c2ccoc2C)nc1C | -76.5 |
| Cc1ccc(C2N(c3ccc(Cl)c(Cl)c3)C(=O)C3CCCN32)o1 (stereo not drawn) | 18.1 |
| CC1(c2ccc(OC(F)F)cc2)NC(=O)N(CC(=O)Nc2ccc3c(c2)OCO3)C1=O (stereo not drawn) | 2.25 |
| COc1ccc(CCNS(=O)(=O)c2ccc3c(c2)CCN3C(=O)CCC(=O)O)cc1OC | 21.5 |
| Cc1cccn2cc(-c3ccccc3)nc12 | -39.3 |
| CCCCNC(=O)Nc1ccnn1C1CCCCC1 | 18.1 |
| Clc1ccc(SCCCCn2ccnc2)cc1 | -10.6 |
| O=C(CN1CCCN(S(=O)(=O)c2ccc(Br)cc2)CC1)Nc1ccc2cn[nH]c2c1 | 2.45 |
| CCCCn1nnnc1SCC(=O)Nc1cccc(C)n1 | -6.38 |
| CCn1c2ccccc2c2cc(NC(=O)CSc3nnc(C4CC4)n3Cc3ccco3)ccc21 | 17.6 |
| Cc1ccc(C)c(NC(=O)C2CCC(C)(C(=O)O)C2(C)C)c1 (stereo not drawn) | 30.8 |
| CCOC(=O)CN1C2=NCCN2c2ccccc21 | 18.8 |
| CCOC(=O)c1nnn(CC(=O)Nc2cccc(OC)c2)c1C(=O)OCC | 14.1 |
| Cn1c(=O)cc(OCC(=O)N2CCN(c3cccc(C(F)(F)F)c3)CC2)c2ccccc21 | 15.2 |
| COc1cc(-c2nc(-c3cccc(C(F)(F)F)c3)no2)cc(OC)c1OC | -10.8 |
| CC1(C)S[C@@H]2[C@H](NC(=O)Cc3ccccc3)C(=O)N2[C@H]1C(=O)O | 37.6 |
| C=CCn1c(SCc2ccc3nonc3c2)nnc1-c1cccs1 | 17.7 |
| COc1ccc(-c2nc(N3CCCC3)[nH]c(=O)c2C#N)cc1 | 13 |
| CCOC(=O)Nc1sc(=S)n(C)c1C | 28.8 |
| Cn1c(=O)c2c(ncn2CC(O)CO)n(C)c1=O (stereo not drawn) | 29.1 |
| CS(=O)(=O)Nc1ccc(S(=O)(=O)Nc2nccs2)cc1 | 14.5 |
| CCOC(=O)CNC(=O)CSc1ncnc2c1cnn2-c1ccccc1 | 8.26 |
| CCC(NS(=O)(=O)c1ccc(C)cc1)C(=O)N1CCC2(O)CCCCC2C1 (stereo not drawn) | 14.3 |

###

Assay: endothelial E-selectin expression blockers – imaging, HUVEC, immunofluorescence, MLSMR starter and 10KST1 sets, primary screen (AID 487);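 further: 100% = median nuclei count of all wells on the same plate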
Settings: HUVEC TNFalpha-induced E-selectin immunofluorescence imaging, at 2 µM; measured here: cell number, toxicity
Entries and their measured nuclei count follow.
METRIC NAME: nuclei count (%)

| COMPOUND | NUMBER |
| --- | --- |
| COc1cccc(CN(C)CC(=O)NC(=O)NCc2ccco2)c1 | 180 |
| O=C(O)CCc1ccc(-c2cccs2)n1NC(=O)c1ccco1 | 132 |
| Cn1cnnc1Sc1nc2c(c(=O)n(C)c(=O)n2C)n1C | 100 |
| Cc1sc2ncnc(OCC(=O)N3CCN(S(=O)(=O)c4ccc(Cl)cc4)CC3)c2c1C | 124 |
| Cc1noc(C)c1C(=O)OCC(=O)Nc1ccccc1C(=O)NC(C)c1ccccc1 (configuration not stated) | 106 |
| Cc1ccc(C(C)C)c(OCc2nnc(SCC(=O)Nc3ncc(C)s3)n2C)c1 | 108 |
| CC1=C(C#N)C(=O)NC(C)(C)C1 | 109 |
| O=C1NC(=O)C2(CCC(C(=O)O)C2)N1 (configuration not stated) | 119 |
| CCOCC(=O)Nc1nc2ccc(OC)cc2s1 | 127 |
| Cn1cnnc1SCC(=O)Nc1ccccc1Sc1ccccc1 | 127 |
| CCOC(=O)CSc1nc2cc(C(=O)NCc3ccco3)ccc2c(=O)n1-c1ccc(F)cc1 | 92.9 |
| COc1ccc(CC(=O)NCc2ccccc2)cc1S(=O)(=O)N1CCOCC1 | 110 |

###

Entries and their measured inhibition follow.
Assay: inhibitors of TNFa-induced NFkB p65 translocation, primary screen, imaging, HUVEC, MLSMR starter and 10KST1 sets (AID 438);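 further: compound added about 3h40 before a 20 min TNFalpha stimulation; signal is the nuclear over cytoplasmic p65 intensity ratio per well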
Details: HUVEC TNFa-induced p65 nuclear translocation; at 2 µM, stronger effect = higher value, 0% TNFa-plus-vehicle, 100% no-TNFa wells
Active and inactive are the calls of the source.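 Rule for the calls: active = inhibition above 20% together with a positive visual image hit; inconclusive = visual image hit but inhibition not above 20%; inactive = no visual image hit.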
METRIC NAME: inhibition

| COMPOUND | RESULT |
| --- | --- |
| Cc1ccccc1-c1nc2ccccc2c(=O)n1C1CCS(=O)(=O)C1 (stereo unspecified) | 3.8% (inactive) |
| Cc1ccc(-c2nnn(CC(=O)NC3CC4CCC3C4)n2)cc1 (stereo unspecified) | -5% (inactive) |
| Nc1nc(CN2CCOCC2)cs1 | -4.8% (inactive) |
| c1coc(-c2nnc(-c3cccs3)o2)c1 | -1.7% (inactive) |
| CC1(C)Cc2c(sc3ncnc(N)c23)CO1 | -14.9% (inactive) |
| COc1ccc(-c2n[nH]c(C)c2-c2ccc(Cl)cc2)c(O)c1OC | -9.6% (inactive) |
| CNC(=O)c1ccccc1NC(=O)c1c(O)c2c([nH]c1=O)CCCC2 | 16.6% (inactive) |
| COc1c2ccoc2nc2c(OC)c(OCC(O)C(C)(C)O)ccc12 (stereo unspecified) | -1.6% (inactive) |
| CCOC(=O)C1CCN(C(=O)Nc2ccc3snnc3c2)CC1 | 5.7% (inactive) |
| O=C(COC(=O)c1ccc(NS(=O)(=O)c2ccc3c(c2)OCCO3)cc1)NCC1CCCO1 (stereo unspecified) | -18.3% (inactive) |
| O=C(c1cnsn1)N1CCN(c2ccccn2)CC1 | 9.3% (inactive) |
| Cc1nc2ccccc2cc1C(=O)NCc1ccco1 | 3.2% (inactive) |
| Cc1ccc(S(=O)(=O)NCCCNC(=O)N2CCOCC2)cc1 | -4.3% (inactive) |
| CCOC(=O)CSC1=Nc2ccccc2C2=NC(CC(=O)NCc3cccs3)C(=O)N12 (stereo unspecified) | 7.2% (inactive) |
| O=C(NC1CCc2ccccc21)C1CCN(S(=O)(=O)c2ccc(-n3cnnn3)cc2)CC1 (stereo unspecified) | 7.5% (inactive) |
| C=CCOc1cccc(C2/C(=C(\O)c3ccc(F)cc3)C(=O)C(=O)N2CCN(C)C)c1 (stereo unspecified) | -12.1% (inactive) |
| CCN(CC)CC(=O)Nc1ccc(-c2nc3cc(NC(=O)CN(CC)CC)ccc3o2)cc1 | 4.9% (inactive) |
| COc1nc(OC)nc(N2CCC(C(=O)NC3CCCCCC3)CC2)n1 | 7.8% (inactive) |
| O=C(NC1CCCc2ccccc21)C1CCN(S(=O)(=O)c2cnc[nH]2)CC1 (stereo unspecified) | -10.3% (inactive) |
| CCc1nccn1S(=O)(=O)c1ccc2ccc(C)cc2c1 | -8.5% (inactive) |
| CC(C)(C)NC(=O)C(c1ccco1)N(C(=O)Cn1nnc(-c2ccc(F)cc2)n1)c1ccccc1 (stereo unspecified) | 9.2% (inactive) |
| CC1Cc2ccccc2N1C(=O)Cc1cccs1 (stereo unspecified) | -3.1% (inactive) |
| CN1C(=O)NC(NC(=O)C2CCCCC2)(C(F)(F)F)C1=O (stereo unspecified) | 1.4% (inactive) |
| O=C(CCn1nc(-c2ccc(Cl)cc2)ccc1=O)N1CCN(c2ccccn2)CC1 | -0.9% (inactive) |
| CC1(C)Cc2nc3oc4c(N(CCO)Cc5ccccc5)ncnc4c3cc2CO1 | 6.7% (inactive) |
| COc1cccc(Nc2c(F)c(F)c(F)c(F)c2C(=O)O)c1 | -4% (inactive) |
| O=C(COc1ccccc1)NCCSCc1ccco1 | -59.2% (inactive) |
| CN(C)S(=O)(=O)n1cnc(-c2ccccc2)c1-c1ccccc1 | 2.8% (inactive) |
| O=C(Nc1ccc(Cl)c(Cl)c1)Nc1cc(C(=O)N2CCOCC2)ccc1N1CCCCC1 | -17.7% (inactive) |
| O=c1oc(-c2ccco2)nc2ccccc12 | 1% (inactive) |
| COc1ccc(OC)c(C2C3=C(CCCC3=O)Nc3c2c(=O)n(C)c(=O)n3C)c1 (stereo unspecified) | 1.4% (inactive) |
| Nn1c(CSc2nc3ccccc3o2)nnc1CSc1nc2ccccc2o1 | -13.4% (inactive) |
| COc1ccc(NC(=O)CCNC(=O)Cn2ccc3ccccc3c2=O)c(OC)c1 | -8.4% (inactive) |
| CCCCc1c(O)nc(SCC(=O)c2ccccc2)[nH]c1=O | 1.7% (inactive) |
| CCOC(=O)c1[nH]c2ccc(F)cc2c1NC(=O)C(C)N1CCc2cc(OC)c(OC)cc2C1 (stereo unspecified) | 0.5% (inactive) |
| CC(C)n1c(=NC(=O)c2ccco2)c(C#N)cc2c(=O)n3ccccc3cc21 | 1.7% (inactive) |
